# Test system: nitrile hydratase
# EXPERIMENT_SUMMARY: Test Example 1: effect of compounds on the amide formation reaction with Rhodococcus rhodochrous J-1 bacterial cells
# Type: biochemical
# CONDITION_INFO: 10 ppm addition in reaction solution, hydrocyanic acid 2.0 ppm in acrylonitrile, 25° C., 3.5 hr
Readings of Concentration Ratio (3.5 hr) for the listed compounds

COMPOUND	UOM	Concentration Ratio (3.5 hr)
CCCCCCCC=O [No. 7, octanal]	%	72.9
O=CO [No. 10, formic acid, reference compound]	%	95.1
CCCCCCCCC=O [No. 8, nonanal]	%	80.1
O=CC=Cc1ccccc1 [No. 16, cinnamaldehyde]	%	99.2
OC[C@@H](O)[C@@H](O)CO [No. 12, meso-erythritol, reference compound]	%	97.8

Reference for the values: patent US20240093251A1
